Data credit: the PETadex activity labels (doi:10.1002/cbic.201800097)

- Substrate: PET
- MEASUREMENT_PROTOCOL: Proxy for plastic degradation [Released monomer concentration (HPLC/LC-MS) (MHET)]
- SETTINGS: pH 9
VALUE_KIND: Proxy for plastic degradation (nM)
One number for each entry, in nM.

unnamed (protein) NPYARGPNPTAASLEASAGPFTVRSFTVSRPSGYGAGTVYYPTNAGGTVGAIAIVPGYTARQSSIKWWGPRLASHGFVVITIDTNSTLDQPSSRSSQQMAALRQVASLNGTSSSPIYGKVDTARMGVMGWSMGGGGSLISAANNPSLKAAAPQAPWDSSTNFSSVTVPTLIFACENDSIAPVNSSALPIYDSMSRNAKQFLEINGGSHSCAASGNSNQALIGKKGVAWMKRFMDNDTRYSTFACENPNSTRVSDFRTANCS = 1.5
unnamed (protein) NPYARGPNPTAASLEASAGPFTVRSFTVSRPSGYGAGTVYYPTNAGGTVGAIAIVPGYTARQSSIKWWGPRLASHGFVVITIDTNSTLDQPSSRSSQQMAALRQVASLNGTSSSPIYGKVDTARMGVMGWSMGGGGSLISAANNPSLKAAAPQAPADSSTNFSSVTVPTLIFACENDSIAPVNSSALPIYDSMSRNAKQFLEINGGSHSCANSGNSNQALIGKKGVAWMKRFMDNDTRYSTFACENPNSTRVSDFRTANCS = 1.5

Would you kindly look at the next entry?
Record unnamed (protein) NPYARGPNPTAASLEASAGPFTVRSFTVSRPSGYGAGTVYYPTNAGGTVGAIAIVPGYTARQSSIKWWGPRLASHGFVVITIDTNSTLDQPSSRSSQQMAALRQVASLNGTSSSPIYGKVDTARMGVMGWAMGGGGSLISAANNPSLKAAAPQAPWDSSTNFSSVTVPTLIFACENASIAPVNSSALPIYDSMSRNAKQFLEINGGSASCANSGNSNQALIGKKGVAWMKRFMDNDTRYSTFACENPNSTRVSDFRTANCS , field Proxy for plastic degradation: 0
